# Test Protocol: qHTS for Inhibitors of the Functional Ribonucleoprotein Complex (vRNP) of Lassa (LASV) Arenavirus: LASV Primary Screen - GLuc reporter signal (AID 1347082); note: % is set by controls: 0 for no effect and ±100 for the full control effect; nearly all actives have a fitted effect of over 60% in size
# Particulars: LASV minigenome vRNP, Gaussia luciferase reporter; series mostly up to 57.5 µM
Results filed as inconclusive are left out. The source made the active and inactive calls. Calls come from the whole dose curve; tested in HEK293 reporter line.
Please reply with one of these outcomes: T = active, F = inactive

Before answering, review these 3 worked examples.
Molecule	Class Assignment
Cc1cnc(-c2cc(N3CCN(C(=O)CCS(C)(=O)=O)CC3)ncc2Cl)c(C)c1	F
Cc1ccc2ccccc2n1	F
O=C(O)CNC(=O)C(CS)Cc1ccccc1 (stereo unspecified)	F

Name the outcome recorded for CN(C)c1nc(N)c(C(=O)N=C(N)N)nc1Cl in the assay.
F

###

# System: KB-3-1
# Test Protocol: Cytotoxic Profiling of Annotated Libraries Using Quantitative High-Throughput Screening (AID 1296008); note: nearly all actives have a fitted effect of over 60% in size; note: potency is the fitted concentration of half-maximal effect
# Particulars: Five cell lines viability, CellTiter-Glo ATP luminescence, 48-72 h
Results filed as inconclusive are left out. The source made the active and inactive calls. The call rests on the fitted dose curve; in most records, active means well fitted inhibition curve with a large enough effect; inconclusive means small, poorly fitted or top-dose-only effect; inactive means flat fitted curve, though single readings scatter. Where a SMILES comes first, the peptide text is derived from it. [ ]: non-standard residue; d: D form. Ala(indol-2-yl) = N[C@@H](Cc1cc2ccccc2[nH]1)C(=O)O; Aib = CC(C)(N)C(=O)O
Measured Attribute: Potency

These recorded examples may help you get a feel for the data.
Compound	Potency
C[C@]12CC[C@H](O)C[C@H]1CC[C@@H]1[C@@H]2[C@H](O)C[C@]2(C)[C@@H](c3ccc(=O)oc3)CC[C@]12O	51.7 nM (active)
CC1=CC(=O)[C@@H](O)[C@@]2(C)C1C[C@H]1OC(=O)[C@H](O)[C@@]3(O)[C@@H](C)[C@@H](O)[C@H](O)C2[C@@]13C (some centres not stated)	6400 nM (active)
COC1CCCC(C)OC(=O)Cc2cc(O)cc(O)c2C(=O)C1 (configuration not stated)	4040 nM (active)
CC1=C[C@H]2O[C@@H]3[C@H](O)[C@@H](O)[C@](C)([C@@]2(CO)C[C@@H]1O)[C@]31CO1	1460 nM (active)
C=CC(C)(C)c1[nH]c2c(CC=C(C)C)cc(CC=C(C)C)cc2c1C[C@@H]1NC(=O)[C@H](C)NC1=O	inactive

Suppose we examine the compound CC(C)(NC(=O)[C@@H](N)Cc1ccc(O)cc1)C(=O)N[C@@H](Cc1cc2ccccc2[nH]1)C(=O)N[C@@H](Cc1ccccc1)C(=O)O (H-Y[Aib][Ala(indol-2-yl)]F-OH) ; what Potency value has been reported?
inactive

Entry C[C@@H]1C[C@@H](O)[C@]2(O)O[C@@H]3C[C@@]4(C=O)C(CC[C@@H]5C4CC[C@]4(C)[C@@H](C6=CC(=O)OC6)CC[C@]54O)C[C@H]3O[C@@H]2O1 (some centres not stated) please
100 nM (active)

###

# System: PA-1
# Test Protocol: Primary qHTS to identify gynecologic anti-cancer compounds using libraries of approved drugs and bioactive compounds (AID 1345084); note: nearly all actives have a fitted effect of over 55% in size
# Particulars: Gynecologic cancer cell panel viability, ATPlite luminescence, 48 h; series mostly up to 57.5 µM
# Excerpt: National Center for Advancing Translational Sciences [NCATS] Assay Overview: Chemotherapeutic drug responses vary from cancer to cancer and from patient to patient. […] ATPlite is a luminescence based assay reliant on the conversion of a luciferase substrate to light in the presence of ATP. As a cytotoxic compound will suppress growth and decrease the number of cells, the concentration of ATP will decrease, and less light signal will be detected in the well. […]
Inconclusive results are not listed. The source made the active and inactive calls. Calls follow the shape of the dose curve; as a rule, active = well fitted cell-killing curve with a large enough effect; inconclusive = small, poorly fitted or top-dose-only effect, or effect the other way; inactive = flat fitted curve, though single readings scatter.
Could you please pick one outcome from this set? true = active, false = inactive

Here's what some known entries look like.
Compound	Class Assignment
CN1C(=O)C(Cc2ccc3ccccc3c2)N=C(c2ccc(O)cc2)c2cc(Cl)ccc21 (configuration not stated)	false
Cc1sc2c(c1C)C(c1ccc(Cl)cc1)=NC(CC(=O)Nc1ccc(O)cc1)c1nnc(C)n1-2 (configuration not stated)	true
C[C@H]1O[C@@H](O[C@H]2CC[C@]3(CO)C4CC[C@]5(C)[C@@H](C6=CC(=O)OC6)CC[C@]5(O)[C@@H]4CC[C@H]3C2)[C@H](O)[C@H](O)[C@@H]1O[C@@H]1O[C@H](CO)[C@@H](O)[C@H](O)[C@H]1O (some centres not stated)	true
C=C1[C@@H](C)C2[C@H](Cc3ccccc3)NC(=O)[C@@]23C(/C=C/C[C@H](C)C[C@@](C)(O)/C=C/[C@@H]3OC(C)=O)[C@@H]1O (some centres not stated)	true

Can you look up the reported call for C=C(C)[C@@H]1[C@H]2OC(=O)[C@H]1[C@]1(O)C[C@H]3O[C@]34C(=O)O[C@H]2[C@]14C for me?
false

Thanks! And C[C@@H](CN1CCC(n2c(=O)[nH]c3cc(Br)ccc32)CC1)NC(=O)[C@@H]1C[C@H]1c1ccccc1 ?
false

What about C=C1C2(C)CC3C(C)(O)C4=CC(=O)OC(C)(C)C4=CCC3(C)C13C(=O)OC(C)C3(O)C2=O (configuration not stated) ?
false

###

# System: Nucleoprotein (Lymphocytic choriomeningitis virus (strain Armstrong)) (UniProt P09992)
# Sequence (P09992 whole entry, looked up): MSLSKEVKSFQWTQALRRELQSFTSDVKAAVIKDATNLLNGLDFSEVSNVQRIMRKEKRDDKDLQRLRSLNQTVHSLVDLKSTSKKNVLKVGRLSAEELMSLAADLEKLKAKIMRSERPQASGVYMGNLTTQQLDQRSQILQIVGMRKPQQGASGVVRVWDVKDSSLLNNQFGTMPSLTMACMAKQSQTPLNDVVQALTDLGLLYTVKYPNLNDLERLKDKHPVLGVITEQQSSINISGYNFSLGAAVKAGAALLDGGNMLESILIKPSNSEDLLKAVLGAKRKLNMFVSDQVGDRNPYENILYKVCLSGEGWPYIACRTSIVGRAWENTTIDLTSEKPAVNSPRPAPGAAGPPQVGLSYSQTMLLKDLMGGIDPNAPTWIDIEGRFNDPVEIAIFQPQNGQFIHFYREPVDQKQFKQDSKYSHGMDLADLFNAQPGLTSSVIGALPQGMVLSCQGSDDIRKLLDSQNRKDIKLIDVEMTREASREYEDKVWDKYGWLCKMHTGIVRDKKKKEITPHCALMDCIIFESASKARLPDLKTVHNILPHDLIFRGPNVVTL
# Test Protocol: qHTS for Inhibitors of the Functional Ribonucleoprotein Complex (vRNP) of Lymphocytic Choriomeningitis Arenaviruses (LCMV): LCMV Primary Screen - GLuc reporter signal (AID 1347086); note: % is set by controls: 0 for no effect and ±100 for the full control effect; nearly all actives have a fitted effect of over 70% in size
# Particulars: LCMV minigenome vRNP cell assay, Gaussia luciferase reporter; series mostly up to 57.5 µM
Records with an inconclusive call do not appear. Active and inactive are the calls of the source. Calls come from the whole dose curve.
The reply should be one of these categories: TRUE for active, FALSE for inactive

Compound	System	Class Assignment
C=CC(=O)CCCCC	Nucleoprotein (Lymphocytic choriomeningitis virus (strain Armstrong)) (UniProt P09992)	FALSE

Hi, sorry to bother you, what did the test record for COC(=O)C1(Cc2ccc(O)c(CC3OC3(C)C)c2)OC(=O)C(O)=C1c1ccc(O)cc1 (configuration not stated) ?
FALSE

Next entry: CC1(C)OC2CC3C4CC(F)C5=CC(=O)C=CC5(C)C4C(O)CC3(C)[C@]2(C(=O)CO)O1 (some centres not stated)
FALSE

Next compound up: COc1ccc(Cn2ccc3ccc(C(=O)NO)cc32)cc1
FALSE

Moving on to NC(=S)NCCC[C@H](N)C(=O)O
FALSE

Please do the same for CC(C(C)N1CC(=O)NC(=O)C1)N1CC(=O)NC(=O)C1 (configuration not stated) as well.
FALSE

What do you get for COc1ccc(-n2nc(C(N)=O)c3c2C(=O)N(c2ccc(N4CCCCC4=O)cc2)CC3)cc1 ?
FALSE

Please answer likewise for C/C=C1\CN2[C@H]3C[C@@]45c6ccccc6N(C)[C@H]4[C@@H]2CC1C3[C@H]5O (some centres not stated)
FALSE

Subsequent entry: CC1(C)CCc2c([nH]c3ccccc3c2=O)O1
FALSE

Same question for CCN(CC)CCOc1ccc(C(=C(Cl)c2ccccc2)c2ccccc2)cc1 please.
FALSE

Entry C=CCN1CCc2cc(O)c(O)cc2C(c2ccccc2)C1 (configuration not stated) please
FALSE

Let us now turn to COc1ccc(-c2coc3cc(O)ccc3c2=O)cc1
FALSE

# repeat for O=C1CCC[C@H]2[C@@H]3CCCN4CCC[C@H](CN12)[C@H]34
FALSE

Continue with CC(=O)OC1[C@H](Oc2c(O)c(C)c3c4c2[C@@H](C)CC[C@@H]4[C@@H](C)C[C@@H]3C=C(C)C)OC[C@@H](O)[C@@H]1O (some centres not stated)
FALSE

Quick one: O=c1c(O)c(-c2cc(O)c(O)c(O)c2)oc2cc(O)cc(O)c12
FALSE

Can you check COc1nccc(-c2c(-c3ccc(F)cc3)ncn2C2CCNCC2)n1 next?
FALSE

One more compound: C=C1C(O)C[C@H]2C(=C)CCC3[C@H](OC(=O)[C@]3(O)CO)[C@@H]12 (some centres not stated)
FALSE

Lookup C=CCOC(=O)c1ccccc1C(=O)OCC=C
FALSE

Also CN[C@@H](Cc1c[nH]c2ccccc12)C(=O)O , if possible.
FALSE

Also, CN1CCN(c2cccc(Nc3nc4c(-c5ccc(S(C)(=O)=O)cc5)cccn4n3)c2)CC1 please.
FALSE

What do you get for NC(=O)Nc1cc(-c2ccc(CN3CCOCC3)cc2)sc1C(N)=O ?
FALSE

###

# Test system: HeLa
# Test Protocol: Primary qHTS to identify gynecologic anti-cancer compounds using libraries of approved drugs and bioactive compounds (AID 1345084); note: nearly all actives have a fitted effect of over 55% in size; for activity change, negative = cytotoxicity: % is set by controls: 0 for no effect and ±100 for the full control effect
# Particulars: Gynecologic cancer cell panel viability, ATPlite luminescence, 48 h; series mostly up to 57.5 µM
Inconclusive results are not listed. Active and inactive are the calls of the source. Calls come from the whole dose curve; as a rule, active = well fitted cell-killing curve with a large enough effect; inconclusive = small, poorly fitted or top-dose-only effect, or effect the other way; inactive = flat fitted curve, though single readings scatter.
Measured Attribute: activity change, negative = cytotoxicity

Here are 5 compounds together with their reported answers.
Compound	Result
C/C=C(\C)C(=O)OC1C2C3(C)CCC(OC4CC(OC)C(OC5OC(C)C(O)C(OC)C5O)C(C)O4)CC3CCC23OC32CCC(C(C)=O)C2(C)C1OC(=O)/C(C)=C/C (stereo unspecified)	13% [at 11.6 µM] (inactive)
C/C=C(\C)C(=O)OC1CC2C(CC=C3CC(OC4CC(OC)C(OC5CC(OC)C(OC6CC(OC)C(OC7CC(OC)C(O)C(C)O7)C(C)O6)C(C)O5)C(C)O4)CCC32C)C2(O)CCC(C(C)=O)C12C (stereo unspecified)	9.98% [at 11.6 µM] (inactive)
CO[C@H]1C[C@H](O[C@H]2CC[C@@]3(C)C(=CCC4C3CC[C@]3(C)[C@@H](C5=CC(=O)OC5)CC[C@]43O)C2)O[C@@H](C)[C@@H]1O[C@@H]1O[C@H](CO[C@@H]2O[C@H](CO)[C@@H](O)[C@H](O)[C@H]2O)[C@@H](O)[C@H](O)[C@H]1O (stereo partly specified)	1.26% [at 11.6 µM] (inactive)
CN(CC[C@H](N)CC(=O)N[C@H]1C=C[C@@H](n2ccc(N)nc2=O)O[C@@H]1C(=O)O)C(=N)N	9.86% [at 11.6 µM] (inactive)
COc1ccc(CC2C(=O)NC(C)C(=O)N(C)C3Cc4ccc(cc4)Oc4cc(ccc4OC4OC(CO)C(O)C(O)C4O)CC(C(=O)NC(C)C(=O)NC(CCC(=O)O)C(=O)N2C)N(C)C3=O)cc1 (stereo unspecified)	-13.7% [at 11.6 µM] (inactive)

Look at this compound and give its reported activity change, negative = cytotoxicity. Nc1ncnc2c1ncn2[C@@H]1O[C@@H]2COP(O)(=S)O[C@H]2[C@H]1O (stereo partly specified)
5.24% [at 11.6 µM] (inactive)
